The reported measurements were obtained from the supplement of paper PMC11908140.

B1: library; numbered along this chain (parent)
chain: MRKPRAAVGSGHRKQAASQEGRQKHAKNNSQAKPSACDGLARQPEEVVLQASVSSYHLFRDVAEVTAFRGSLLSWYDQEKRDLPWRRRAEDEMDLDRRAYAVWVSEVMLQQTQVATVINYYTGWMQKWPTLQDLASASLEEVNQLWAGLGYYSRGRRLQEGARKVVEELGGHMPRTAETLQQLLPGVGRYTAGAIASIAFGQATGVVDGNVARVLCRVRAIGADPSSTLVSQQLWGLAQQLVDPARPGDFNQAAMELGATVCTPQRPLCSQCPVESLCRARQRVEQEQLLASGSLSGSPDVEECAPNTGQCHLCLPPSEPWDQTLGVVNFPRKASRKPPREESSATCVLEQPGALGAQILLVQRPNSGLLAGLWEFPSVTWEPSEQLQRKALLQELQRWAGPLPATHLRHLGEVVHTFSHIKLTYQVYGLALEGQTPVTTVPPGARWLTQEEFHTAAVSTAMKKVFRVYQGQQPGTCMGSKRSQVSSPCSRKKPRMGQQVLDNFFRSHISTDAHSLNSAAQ

variants of: B1; assay: 8OG:A repair function score (normalized; synonymous = 0, nonsense = -1) (normalized log-likelihood score); higher = more repair activity (WT-like); conditions: with 8OG:A DNA repair reporter (GFP) in HEK-293 MUTYH KO cells;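 note: cells sorted at 72 h after reporter transfection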
measuredProperty: 8OG:A repair function score

variant: V207T
observedResult: -0.785
--
variant: N210K
observedResult: -1.04
--
variant: R266I
observedResult: -0.164
--
variant: A371H
observedResult: -0.324
--
variant: R97S
observedResult: -0.0417
--
variant: L180Q
observedResult: -0.655
--
variant: P273K
observedResult: -0.708
--
variant: S515K
observedResult: -0.00207
--
variant: R336P
observedResult: -0.136
--
variant: V117W
observedResult: -0.737
--
variant: D224I
observedResult: -0.934
--
variant: F376M
observedResult: -0.13
--
variant: E375T
observedResult: -0.355
--
variant: E341S
observedResult: -0.0269
--
variant: S318G
observedResult: -0.0532
--
variant: Y56I
observedResult: -0.000994
--
variant: R482F
observedResult: 0.0283
--
variant: L387P
observedResult: -0.26
--
variant: F68G
observedResult: -1.41
--
variant: G155A
observedResult: 0.037
--
variant: V500T
observedResult: 0.02
--
variant: A254N
observedResult: -0.427
